Would you mind telling me the reported Ratio of each entry?
- target.or.test.system: ATP-dependent translocase ABCB1 (Homo sapiens, UniProt P08183)
- Sequence (P08183 whole entry): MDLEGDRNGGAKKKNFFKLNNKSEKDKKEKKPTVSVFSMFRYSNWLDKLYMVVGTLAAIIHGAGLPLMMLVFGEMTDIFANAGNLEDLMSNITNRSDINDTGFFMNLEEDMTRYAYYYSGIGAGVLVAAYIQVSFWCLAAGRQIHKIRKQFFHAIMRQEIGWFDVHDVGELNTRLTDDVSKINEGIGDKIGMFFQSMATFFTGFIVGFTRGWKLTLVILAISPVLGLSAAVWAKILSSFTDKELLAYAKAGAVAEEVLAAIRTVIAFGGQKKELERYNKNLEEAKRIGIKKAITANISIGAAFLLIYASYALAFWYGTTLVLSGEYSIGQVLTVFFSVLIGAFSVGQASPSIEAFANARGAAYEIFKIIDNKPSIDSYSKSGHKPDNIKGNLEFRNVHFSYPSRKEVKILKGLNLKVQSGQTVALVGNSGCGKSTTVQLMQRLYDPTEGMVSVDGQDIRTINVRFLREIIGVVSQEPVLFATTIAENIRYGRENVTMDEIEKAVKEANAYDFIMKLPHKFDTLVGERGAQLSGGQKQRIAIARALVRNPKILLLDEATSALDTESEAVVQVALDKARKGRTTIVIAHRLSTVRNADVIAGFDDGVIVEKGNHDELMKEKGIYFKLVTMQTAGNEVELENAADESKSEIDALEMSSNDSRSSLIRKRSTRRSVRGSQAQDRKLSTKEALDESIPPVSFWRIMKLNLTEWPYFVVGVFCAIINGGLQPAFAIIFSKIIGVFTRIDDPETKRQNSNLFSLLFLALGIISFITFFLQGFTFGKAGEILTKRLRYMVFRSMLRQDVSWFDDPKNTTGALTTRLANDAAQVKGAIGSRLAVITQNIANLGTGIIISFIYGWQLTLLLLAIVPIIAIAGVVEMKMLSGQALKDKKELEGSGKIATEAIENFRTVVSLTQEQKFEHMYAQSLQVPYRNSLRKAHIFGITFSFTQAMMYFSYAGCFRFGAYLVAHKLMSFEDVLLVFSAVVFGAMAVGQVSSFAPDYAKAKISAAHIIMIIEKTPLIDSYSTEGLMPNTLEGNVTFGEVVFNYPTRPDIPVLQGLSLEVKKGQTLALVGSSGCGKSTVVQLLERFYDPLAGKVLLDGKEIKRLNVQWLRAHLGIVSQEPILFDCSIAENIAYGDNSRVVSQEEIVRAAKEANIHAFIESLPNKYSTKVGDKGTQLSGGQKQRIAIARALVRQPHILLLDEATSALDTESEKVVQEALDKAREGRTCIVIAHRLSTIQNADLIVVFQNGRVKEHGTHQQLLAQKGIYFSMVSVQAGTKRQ
- test.protocol: Inhibition of human ABCB1 expressed in mouse L5178Y cells using rhodamine 123 as substrate assessed as ratio of fluorescent intensity in ABCB1 expressing L5178Y cells to wild type L5178Y cells at 1 uM after 20 mins by flow cytometry
- Format: cell-based
Answers are plain numbers.

compound	target.or.test.system	Ratio
CCOC(=O)C1=CN(Cc2cccc(OC)c2)c2ccccc2C1c1cccc(OC)c1 (configuration not stated)	ATP-dependent translocase ABCB1 (Homo sapiens, UniProt P08183)	2.26
CCOC(=O)C1=CN(Cc2cccc(OC)c2)c2ccccc2C1c1ccc(OC)c(OC)c1 (configuration not stated)	ATP-dependent translocase ABCB1 (Homo sapiens, UniProt P08183)	2.98
CCOC(=O)C1=CN(Cc2ccccc2)c2ccccc2C1c1ccccc1 (configuration not stated)	ATP-dependent translocase ABCB1 (Homo sapiens, UniProt P08183)	1.48

// batch mode: one Ratio value per listed entry
1. CCOC(=O)C1=CN(Cc2cccc(OC)c2)c2ccccc2C1c1cc(OC)cc(OC)c1 (configuration not stated)
2. CCOC(=O)C1=CN(Cc2cccc(OC)c2)c2ccccc2C1c1ccc(OC)cc1 (configuration not stated)
3. CCOC(=O)C1=CN(Cc2ccc(OC)cc2)c2ccccc2C1c1ccc(OC)cc1 (configuration not stated)
4. CCOC(=O)C1=CN(Cc2ccccc2)c2ccccc2C1c1ccc(OC)c(OC)c1 (configuration not stated)
5. CCOC(=O)C1=CN(Cc2ccc(OC)cc2)c2ccccc2C1c1cc(OC)cc(OC)c1 (configuration not stated)
6. CCOC(=O)C1=CN(Cc2ccc(OC)cc2)c2ccccc2C1c1ccc(OC)c(OC)c1 (configuration not stated)

## Output
[2.71, 2.23, 2.55, 3.42, 3.63, 2.41]

// batch mode: one Ratio value per listed entry
1. CCOC(=O)C1=CN(Cc2ccccc2)c2ccccc2C1c1cc(OC)cc(OC)c1 (configuration not stated)
2. COc1ccc(CCN(C)CCCC(C#N)(c2ccc(OC)c(OC)c2)C(C)C)cc1OC (configuration not stated)
3. CCOC(=O)C1=CN(Cc2ccc(OC)cc2)c2ccccc2C1c1cccc(OC)c1 (configuration not stated)

## Output
[2.96, 1.46, 2.03]
